Property: cytotoxicity at 10 µM; scope: individual compounds
assay: Toxicity liver stage against HepG2, at 10uM; assay type: cell-based; set-up: test concentration 10 uM, cell line HepG2-A16-CD81EGFP; details: human, HepG2-A16-CD81EGFP cells; read-out: INHIBITION
Kindly provide the numeric value in % only, without the unit symbol.

Some entries whose results are on file:
INSERT INTO assay_data (compound, measurement) VALUES
  ('Cc1cc(-c2cnc(N3CCCC(C)C3)nc2C(C)C)on1 (stereo unspecified)', 3.05),
  ('NCc1cnn(-c2ccccc2C(=O)NCc2ccccc2Cl)c1', -3.52),
  ('Cc1cc(NC(=O)CCn2nc(C)c3ccccc32)n(C)n1', 3.4);

Which cytotoxicity at 10 µM value belongs to `CCC1=N[C@@]2(CC[C@@H]3CN(Cc4ccc(Cl)cc4)C[C@@H]32)C(=O)N1` ?
3.6

Which cytotoxicity at 10 µM value belongs to `Cc1ncc(C(=O)NCCOc2ccccc2F)c(C)n1` ?
24.8

Which cytotoxicity at 10 µM value belongs to `COc1cccc(OCCCc2cncc(C(N)=O)c2)c1` ?
-124
